The origin of these recorded values is ChEMBL document CHEMBL4513216.

test: Toxicity liver stage against HepG2, at 10uM
Assay type: cell-based
Set-up: test concentration 10 uM, cell line HepG2-A16-CD81EGFP
condition-summary: human, HepG2-A16-CD81EGFP cells; read-out: INHIBITION
property-measured: cytotoxicity at 10 µM (%)
Enter your answer as a number in %; do not include the unit.

Cc1cc2cccc(C(=O)N3CC[C@@H](N)[C@H](O)C3)c2o1 :: -0.193
O=C(CSCc1ccccn1)NCC1CCN(C2CC2)C1 (stereo unspecified) :: -14.8
Cc1cccc2c1OCCC2NCc1c(C)nn(C)c1N(C)C (stereo unspecified) :: -5.72
CCCS(=O)(=O)N1Cc2nccn2CC(CN2CCCC2)C1 (stereo unspecified) :: -131
O=C(O)c1c(-c2cccnc2)ncc2c1CCN(Cc1ccccn1)C2 :: -1.43

Let's switch to this compound now.
Give cytotoxicity at 10 µM for `Cc1ccc(CN(CC(=O)NC2CCOCC2)c2ccc(F)cc2)o1`
1.55

====

test: Toxicity liver stage against HepG2, at 10uM
Type: cell-based
Design: test concentration 10 uM, cell line HepG2-A16-CD81EGFP
condition-summary: human, HepG2-A16-CD81EGFP cells; read-out: INHIBITION
property-measured: cytotoxicity at 10 µM (%)
Enter your answer as a number in %; do not include the unit.

COc1ccc(CN2C[C@@H]3CN(Cc4cccnc4)CCO[C@@H]3C2)cc1 :: 10.3

Give cytotoxicity at 10 µM for Cn1cc(NS(=O)(=O)CC2CCCCO2)cn1 (stereo unspecified)
-5.41

Give cytotoxicity at 10 µM for `CC(C)(CC(=O)N(CC(N)=O)C1CCCC1)c1ccccc1`
-4.95

Give cytotoxicity at 10 µM for Fc1ccc(CN2CCc3ncnc(C4CCOC4)c3CC2)cc1 (stereo unspecified)
12.3

Give cytotoxicity at 10 µM for CC(C)c1ccc(-n2ncc(C(=O)NCC3COC(C)(C)O3)c2N)cc1 (stereo unspecified)
-0.726

Give cytotoxicity at 10 µM for `c1ccc(CN2CCc3ncnc(-c4cccnc4)c3CC2)nc1`
-75.7

====

Below is a list of entries, each paired with its recorded cytotoxicity at 10 µM value.
test: Toxicity liver stage against HepG2, at 10uM
Type: cell-based
Design: test concentration 10 uM, cell line HepG2-A16-CD81EGFP
condition-summary: human, HepG2-A16-CD81EGFP cells; read-out: INHIBITION
Enter your answer as a number in %; do not include the unit.

Consider the reported cytotoxicity at 10 µM for these molecules:
Cc1nc(CN2CCCN(Cc3nc4c(F)cccc4[nH]3)CC2)no1 :: 0.601
Cc1ccc(CN2CC[C@@H](N(C)C(C)C)[C@@H]2Cc2ccccc2)o1 :: -3.52
CC(=O)Nc1nc(C(=O)N2CCCC2Cn2cc(C)cn2)cs1 (stereo unspecified) :: 7.07

Give cytotoxicity at 10 µM for `CC1(C)CN(C(=O)NCCc2ccn(-c3ccccc3)n2)CCO1`
2.21

Give cytotoxicity at 10 µM for `CO[C@@H]1CC[C@H]2[C@H]1OCCN2Cc1ccccn1`
1.06

Give cytotoxicity at 10 µM for O=C(c1ccnc(N2CCOC(C(F)(F)F)C2)c1)N1CCCC1 (stereo unspecified)
-3.5

====

test: Toxicity liver stage against HepG2, at 10uM
Type: cell-based
Set-up: test concentration 10 uM, cell line HepG2-A16-CD81EGFP
condition-summary: human, HepG2-A16-CD81EGFP cells; read-out: INHIBITION
property-measured: cytotoxicity at 10 µM (%)
Enter your answer as a number in %; do not include the unit.

Consider the reported cytotoxicity at 10 µM for these compounds:
O=C(c1ccco1)N1CCc2onc(CN3CCCC3)c2C1 :: 4.38
CCC(=O)N1CCC2(CC1)CC(NC(=O)N(C)C)c1cc(C)ccc12 (stereo unspecified) :: 8.39
Cc1ccc(C(=O)N2CCN(CCCSCC#N)CC2)cc1F :: -145
Cc1ccc(CN(C)C)cc1NC(=O)C1CC=CC1 :: -8
CC(C)c1nccn1C(C)C(=O)NCc1noc(Cc2cccs2)n1 (stereo unspecified) :: -4.91

Let's switch to this compound now.
Give cytotoxicity at 10 µM for `COC[C@@H]1CCC[C@]12CN(CCc1ccccc1)CCO2`
0.312

====

test: Toxicity liver stage against HepG2, at 10uM
Format: cell-based
Parameters: test concentration 10 uM, cell line HepG2-A16-CD81EGFP
condition-summary: human, HepG2-A16-CD81EGFP cells; read-out: INHIBITION
property-measured: cytotoxicity at 10 µM

Consider the reported cytotoxicity at 10 µM for these compounds:
CNC(=O)c1[nH]nc2c1CN(c1cc(C3CCCNC3)nc(C)n1)CC2 (configuration not stated) :: -51.8%
O=C(CCOc1ccccc1Cl)N1CCN(c2cnccn2)CC1 :: -29.2%
COc1ccccc1OC1CN(C(=O)Cc2c(C)nc(C)[nH]c2=O)C1 :: -2.9%
Fc1ccc(OCc2noc(CN3CCc4cncnc4C3)n2)cc1 :: 2%
CC(C)Cc1noc(C2CCCCN2C(=O)CCc2cnn(C)c2)n1 (configuration not stated) :: 3.6%
C[C@H](O)CNc1cc(-c2ccccc2)ncn1 :: -11.2%
Cc1nc2cc(C(=O)N3C[C@@H](C(=O)O)[C@H](C4CC4)C3)ccc2[nH]1 :: -12.1%
Cc1ccc(CN2CCC3(C2)C(=O)N(CC2CC2)c2ccccc23)s1 (configuration not stated) :: 13.4%
CN(C)CCOCC1CN(CC2CCOCC2)Cc2nnn(C)c21 (configuration not stated) :: 3.01%
c1cnc(N2CCCn3nnc(COCC4CC4)c3C2)nc1 :: -4.97%

Give cytotoxicity at 10 µM for `CSC1(CNC(=O)c2ccn(-c3ccccc3F)n2)CCOCC1`
0.243%

Give cytotoxicity at 10 µM for CCOCC1COCCC12CCN(C(=O)C1=CCCCC1)CC2 (configuration not stated)
-3.09%

====

Below is a list of entries, each paired with its recorded cytotoxicity at 10 µM value.
test: Toxicity liver stage against HepG2, at 10uM
Type: cell-based
Design: test concentration 10 uM, cell line HepG2-A16-CD81EGFP
condition-summary: human, HepG2-A16-CD81EGFP cells; read-out: INHIBITION
Enter your answer as a number in %; do not include the unit.

c1cc(C2CN(C3CCCCC3)C2)n[nH]1 :: 4.18
O=C(CC1CC1)N1CCC2(CC1)CN(c1ncccn1)CCO2 :: 1.49
COc1nc2c(cc1C(=O)N1C[C@@H](N)C[C@H]1C(=O)NC(C)C)CCC2 :: 3.52
CCc1nnc2n1CCN(C(=O)c1csc(-c3cnn(C)c3)n1)C2 :: 6.41

Give cytotoxicity at 10 µM for `Cc1ccsc1CN(C)C(=O)Cn1nc(-c2ccc(F)cc2)oc1=O`
1.31

Give cytotoxicity at 10 µM for CNC(=O)NC(=O)CN(CC(C)O)c1ccccc1 (stereo not drawn)
10.9

Give cytotoxicity at 10 µM for Nc1ccc(C(=O)N2CCCC(C(=O)CCc3ccccc3)C2)cn1 (stereo not drawn)
-7.98

Give cytotoxicity at 10 µM for `O=C(NS(=O)(=O)c1cnn(-c2ccccc2F)c1)c1ccco1`
-8.86

Give cytotoxicity at 10 µM for `Cc1cccc(-c2cc(C(=O)O)sn2)c1`
-0.475

Give cytotoxicity at 10 µM for COCC1c2nnn(CC3CC3)c2CCN1C(=O)c1ccncn1 (stereo not drawn)
-132

Give cytotoxicity at 10 µM for `CCc1ccc(CN2C[C@@H]3COC[C@H](NS(C)(=O)=O)[C@@H]3C2)o1`
-2.01

Give cytotoxicity at 10 µM for `CC(=O)c1cn(CCC(=O)Nc2c3c(nn2C)CSC3)c2ccccc12`
-1.93

Give cytotoxicity at 10 µM for Cc1ccc(O)c(C(=O)N2CCC(CNC(=O)OC(C)(C)C)C2)c1 (stereo not drawn)
16.4

Give cytotoxicity at 10 µM for `COc1cccc(CC(=O)N2CCc3ncnc(C)c3CC2)c1`
-1.59

Give cytotoxicity at 10 µM for O=C(Cc1ccsc1)NCC1Cn2nnc(-c3ccoc3)c2CO1 (stereo not drawn)
17.6

Give cytotoxicity at 10 µM for `Cc1cc(CN(C)C(=O)NC2CCN(Cc3ccccn3)CC2)no1`
-17.4

Give cytotoxicity at 10 µM for `COc1ccc(CCC(=O)N(C)Cc2c(C)nn(C)c2C)cc1`
-0.734

====

test: Toxicity liver stage against HepG2, at 10uM
Format: cell-based
Parameters: test concentration 10 uM, cell line HepG2-A16-CD81EGFP
condition-summary: human, HepG2-A16-CD81EGFP cells; read-out: INHIBITION
property-measured: cytotoxicity at 10 µM (%)
Enter your answer as a number in %; do not include the unit.

COc1ccc(NC(=O)CN2CCCCC2C2OCCO2)cc1 (configuration not stated) :: 30.9
Oc1cccc(CNCC2CCCO2)c1 (configuration not stated) :: -1.37
Cc1nc(O)cc(C2CCCN2CCO)n1 (configuration not stated) :: -14.5
Cc1cc(C)nc(NCCC(=O)NCCn2ccnc2C)n1 :: 2.77
Cc1cc(C)c(CNC(=O)N2CCCC2c2cccc(F)c2)c(=O)[nH]1 (configuration not stated) :: 5.22

Let's switch to this compound now.
Give cytotoxicity at 10 µM for Cc1cc2cc(CNC3CCN(CC4CCOC4)CC3)oc2cc1C (configuration not stated)
-8.14
